All values here come from patent EP0933350A1.

- testTarget: RXRα (Homo sapiens, UniProt P19793)
- Sequence (P19793 1-462): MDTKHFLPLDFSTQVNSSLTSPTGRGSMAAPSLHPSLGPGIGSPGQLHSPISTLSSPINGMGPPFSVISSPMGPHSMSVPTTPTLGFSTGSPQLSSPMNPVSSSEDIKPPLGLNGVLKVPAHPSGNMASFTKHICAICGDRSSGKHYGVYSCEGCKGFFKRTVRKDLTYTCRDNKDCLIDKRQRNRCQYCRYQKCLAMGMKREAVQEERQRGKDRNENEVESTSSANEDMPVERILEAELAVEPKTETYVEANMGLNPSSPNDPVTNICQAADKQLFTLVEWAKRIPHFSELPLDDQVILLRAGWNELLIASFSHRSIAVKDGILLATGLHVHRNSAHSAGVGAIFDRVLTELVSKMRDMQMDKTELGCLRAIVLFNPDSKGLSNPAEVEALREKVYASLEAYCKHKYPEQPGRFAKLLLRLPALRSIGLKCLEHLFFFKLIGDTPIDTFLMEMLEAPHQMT
pKd: −log10 of the molar value.
assayMetric: pKd

Recorded pKd, per entry:
1) CCN1CC\C(=C/C=C/C(C)=C/C(=O)O)c2cc3c(cc21)C(C)(C)CCC3(C)C [Compound 147b]: 6.36
2) CC(/C=C/C=C1\CCCc2cc3c(cc21)C(C)(C)CCC3(C)C)=C\C(=O)O [Compound 109b]: 6.47
3) CC(/C=C/C=C1/CCOc2cc3c(cc21)C(C)(C)CCC3(C)C)=C\C(=O)O [Compound 144b]: 7.23

A: CC(/C=C/CN1CCCCc2cc3c(cc21)C(C)(C)CCC3(C)C)=C\C(=O)O [Compound 138b]
B: CC(/C=C/C=C1\CCOc2cc3c(cc21)C(C)(C)CCC3(C)C)=C\C(=O)O [Compound 119b]
C: CC(/C=C/C=C1/CCCc2cc3c(cc21)C(C)(C)CCC3(C)C)=C\C(=O)O [Compound 101b]
Please list the entries, largest pKd first. As an answer, provide the labels arranged in the order called for. C, A, B

* * *

- testTarget: RARγ (Homo sapiens, UniProt P13631)
- Sequence (P13631 1-454): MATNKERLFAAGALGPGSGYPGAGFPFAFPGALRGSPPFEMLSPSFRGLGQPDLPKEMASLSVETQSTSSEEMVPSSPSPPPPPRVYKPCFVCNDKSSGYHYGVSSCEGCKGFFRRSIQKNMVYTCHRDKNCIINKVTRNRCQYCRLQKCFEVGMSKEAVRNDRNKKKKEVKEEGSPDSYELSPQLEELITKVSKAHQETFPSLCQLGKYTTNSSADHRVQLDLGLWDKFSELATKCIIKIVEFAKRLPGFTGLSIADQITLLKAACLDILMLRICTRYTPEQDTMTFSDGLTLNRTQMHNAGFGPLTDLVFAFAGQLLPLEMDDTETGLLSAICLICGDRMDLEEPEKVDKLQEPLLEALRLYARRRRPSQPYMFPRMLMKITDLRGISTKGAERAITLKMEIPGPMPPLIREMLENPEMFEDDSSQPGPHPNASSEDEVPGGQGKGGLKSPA
- runDescription: co-transfection assay (RAR/RXR agonist activity, luciferase reporter in CV-1 cells)
- conditionSet: potency = EC50, agonist, 40 hours, read-out: RARγ Pot
assayMetric: EC50 (nM)

Recorded EC50, per entry:
1. CC(/C=C/CC1CCCc2cc3c(cc21)C(C)(C)CCC3(C)C)=C\C(=O)O (racemic) [Compound 124b]: 94
2. CC(/C=C/C=C1/CCCc2cc3c(cc21)C(C)(C)CCC3(C)C)=C\C(=O)O [Compound 101b]: 7
3. CC(/C=C/C=C1/CCOc2cc3c(cc21)C(C)(C)CCC3(C)C)=C\C(=O)O [Compound 144b]: 2

I: CCN1CC\C(=C/C=C/C(C)=C/C(=O)O)c2cc3c(cc21)C(C)(C)CCC3(C)C [Compound 147b]
II: CC(/C=C/C=C1\CCc2c1ccc1c2C(C)(C)CCC1(C)C)=C\C(=O)O [Compound 135b]
Parameter check: reported EC50 is higher for which label, I or II ? Answer by quoting the chosen item's label. II

I: CC(/C=C/C=C1\CCOc2cc3c(cc21)C(C)(C)CCC3(C)C)=C\C(=O)O [Compound 119b]
II: CC1(C)CCC(C)(C)c2cc3c(cc21)CCC/C3=N\Nc1ccc(C(=O)O)cc1 [Compound 152b]
// returns I or II , whichever has the lower EC50 Answer by quoting the chosen item's label. I

* * *

- testTarget: RARβ (Homo sapiens)
- runDescription: co-transfection assay (RAR/RXR agonist activity, luciferase reporter in CV-1 cells)
- conditionSet: potency = EC50, agonist, 40 hours, read-out: RARβ Pot
- Sequence (P10826 1-448 isoform P10826-2): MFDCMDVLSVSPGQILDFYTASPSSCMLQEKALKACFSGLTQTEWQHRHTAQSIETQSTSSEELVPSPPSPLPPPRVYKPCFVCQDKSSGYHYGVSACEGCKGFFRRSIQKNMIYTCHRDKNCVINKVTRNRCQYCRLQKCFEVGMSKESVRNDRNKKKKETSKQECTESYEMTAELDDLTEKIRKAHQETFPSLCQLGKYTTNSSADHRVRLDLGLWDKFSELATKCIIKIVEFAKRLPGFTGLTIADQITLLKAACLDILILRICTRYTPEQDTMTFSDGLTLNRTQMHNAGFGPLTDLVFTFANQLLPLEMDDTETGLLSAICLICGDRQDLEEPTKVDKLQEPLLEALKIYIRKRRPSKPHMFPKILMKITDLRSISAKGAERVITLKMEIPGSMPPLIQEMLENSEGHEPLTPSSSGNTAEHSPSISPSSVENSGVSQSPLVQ
pEC50: −log10 of the molar value.
assayMetric: pEC50

1. CCN1CC\C(=C/C=C/C(C)=C/C(=O)O)c2cc3c(cc21)C(C)(C)CCC3(C)C [Compound 147b]: 8.40

I: CC(/C=C/C=C1/CCOc2cc3c(cc21)C(C)(C)CCC3(C)C)=C\C(=O)O [Compound 144b]
II: CC(/C=C/C=C1\CCOc2cc3c(cc21)C(C)(C)CCC3(C)C)=C\C(=O)O [Compound 119b]
III: CC(/C=C/CN1CCCc2c1ccc1c2C(C)(C)CCC1(C)C)=C\C(=O)O [Compound 143b]
Please list the entries, largest pEC50 first. As an answer, provide the labels arranged in the order called for. II, I, III

* * *

- Test system: ME 180 cell line
- runDescription: incorporation of 3H-thymidine (antiproliferative)
- Format: cell-based
- conditionSet: Homo sapiens, 96 hours, radiolabeled thymidine incorporation, read-out: TdR IC50
assayMetric: pIC50
Notebook: values listed as pIC50 are -log10 of the concentration (mol/L).

1. CC(/C=C/C=C1\CCCc2cc3c(cc21)C(C)(C)CCC3(C)C)=C\C(=O)O [Compound 109b]: 8.30
2. CC(/C=C/C=C1\CCOc2cc3c(cc21)C(C)(C)CCC3(C)C)=C\C(=O)O [Compound 119b]: 9.22
3. CC(/C=C/C=C1/CCCc2cc3c(cc21)C(C)(C)CCC3(C)C)=C\C(=O)O [Compound 101b]: 8.10
4. CC(/C=C/C=C1/CCOc2cc3c(cc21)C(C)(C)CCC3(C)C)=C\C(=O)O [Compound 144b]: 8.40

Look up pIC50 for this compound: CC(/C=C/C=C1/CC(C)(C)Oc2cc3c(cc21)C(C)(C)CCC3(C)C)=C\C(=O)O [Compound 104b] 7.05

* * *

- Test system: ME 180 cell line
- runDescription: viability (tetrazolium dye, mitochondrial function)
- Type: cell-based
- conditionSet: Homo sapiens, 96 hours, read-out: MTS IC50
assayMetric: IC50 (µM)
Just the number please, in µM, no unit attached.

Recorded IC50, per entry:
1) CC(/C=C/C=C1/CCOc2cc3c(cc21)C(C)(C)CCC3(C)C)=C\C(=O)O [Compound 144b]: 0.01
2) CC1=C(/C=C/C(C)=C/C=C/C(C)=C/C(=O)O)C(C)(C)CCC1 [ATRA, all-trans retinoic acid, reference compound]: 0.89
3) CC(/C=C/C=C1/CC(C)(C)Oc2cc3c(cc21)C(C)(C)CCC3(C)C)=C\C(=O)O [Compound 104b]: 1
4) CC(/C=C/C=C1/CCCc2cc3c(cc21)C(C)(C)CCC3(C)C)=C\C(=O)O [Compound 101b]: 0.075

Look up IC50 for this molecule: CC(/C=C/C=C1\CCOc2cc3c(cc21)C(C)(C)CCC3(C)C)=C\C(=O)O [Compound 119b] 0.002

And what about the molecule CC(/C=C/C=C1\CCCc2cc3c(cc21)C(C)(C)CCC3(C)C)=C\C(=O)O [Compound 109b] ? 0.1

* * *

Target protein (sequence): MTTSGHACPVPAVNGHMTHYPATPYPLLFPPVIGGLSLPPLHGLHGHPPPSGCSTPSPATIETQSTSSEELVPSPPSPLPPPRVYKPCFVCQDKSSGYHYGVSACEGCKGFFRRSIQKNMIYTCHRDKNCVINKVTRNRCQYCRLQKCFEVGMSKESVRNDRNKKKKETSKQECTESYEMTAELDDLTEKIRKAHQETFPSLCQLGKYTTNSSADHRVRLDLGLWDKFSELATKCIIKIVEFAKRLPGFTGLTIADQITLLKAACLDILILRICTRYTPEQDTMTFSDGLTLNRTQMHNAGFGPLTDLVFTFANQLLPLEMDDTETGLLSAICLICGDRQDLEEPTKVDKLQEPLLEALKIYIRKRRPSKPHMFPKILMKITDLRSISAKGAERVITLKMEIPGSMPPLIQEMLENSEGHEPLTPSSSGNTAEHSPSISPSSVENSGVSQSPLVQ
assayMetric: Kd (nM)

Recorded Kd, per entry:
1) CC(/C=C/C=C1\CCCc2cc3c(cc21)C(C)(C)CCC3(C)C)=C\C(=O)O [Compound 109b]: 68
2) CC(/C=C/C=C1/CCOc2cc3c(cc21)C(C)(C)CCC3(C)C)=C\C(=O)O [Compound 144b]: 313

P: CC(/C=C/C=C1\CCOc2cc3c(cc21)C(C)(C)CCC3(C)C)=C\C(=O)O [Compound 119b]
Q: CC(/C=C/C=C1/CCCc2cc3c(cc21)C(C)(C)CCC3(C)C)=C\C(=O)O [Compound 101b]
R: CCN1CC\C(=C/C=C/C(C)=C/C(=O)O)c2cc3c(cc21)C(C)(C)CCC3(C)C [Compound 147b]
Please list the entries, largest Kd first. As an answer, provide the labels arranged in the order called for. Q, P, R
